system: CAKI-1; experiment: NCI tumour cell line growth inhibition, 48 h
Activity calls are given as the source filed them. No stated cut-off is given here; in the data, active = GI50 up to about 1.1 µM and inactive = higher.

MOLECULE: CCOc1cc(NC(C)=O)ccc1C(=O)NN1C(=O)/C(=C/c2ccco2)N=C1c1ccccc1
GI50: > 100 µM (inactive)
--
MOLECULE: C1CCNCC1.S=C(S)N1CCCCC1
GI50: 33.4 µM (inactive)
--
MOLECULE: O=c1nc2n3c4c(cccc4nc-2c(=O)[nH]1)CCC3
GI50: > 100 µM (inactive)
--
MOLECULE: NC1C2C=CC(C2)C1C(=O)O (centres undefined)
GI50: > 100 µM (inactive)
--
MOLECULE: CC(=O)CC(=O)Nc1ccc2ccccc2c1
GI50: 84.3 µM (inactive)
--
MOLECULE: COc1ccc(N2C(=O)CSC2c2cc3cc(Br)ccc3nc2Cl)cc1 (centres undefined)
GI50: 27.5 µM (inactive)
--
MOLECULE: CCC1CN2CCc3cc(OC)c(OC)cc3C2CC1CC1c2cc(OC)c(OC)cc2CCN1C(=O)C1CCCN1C(=O)OCc1ccccc1 (centres undefined)
GI50: 20.3 µM (inactive)
--
MOLECULE: CN(c1ccccc1)c1c(-c2ccccc2)c(=O)oc2c1ccc1occc12
GI50: 36.2 µM (inactive)
--
MOLECULE: COc1ccc2c(c1[N+](=O)[O-])CC[C@@H]1[C@@H]2CC[C@]2(C)C(=O)CC[C@@H]12
GI50: > 25 µM (inactive)
--
MOLECULE: c1ccc(CN2CCC3(CC2)SSC2(CCN(Cc4ccccc4)CC2)SS3)cc1
GI50: > 100 µM (inactive)
--
MOLECULE: O=C(NCCCCCCO)c1cccc2cc3ccccc3nc12
GI50: 17.4 µM (inactive)
--
MOLECULE: CCCCCCC(=O)C/C(CCC(=O)N(Cc1ccccc1)Cc1ccccc1)=N\NC(N)=O
GI50: > 100 µM (inactive)
--
MOLECULE: c1ccc(C2(c3ccccc3)SSC3(S2)C2CC4CC(C2)CC3C4)cc1 (centres undefined)
GI50: > 100 µM (inactive)
--
MOLECULE: C=CCN1C(=O)/C(=C\c2cc(C(C)(C)C)c(O)c(C(C)(C)C)c2)NC1=S
GI50: 22.3 µM (inactive)
--
MOLECULE: O=C1C2CCCC2N1Cc1ccccc1 (centres undefined)
GI50: > 100 µM (inactive)
--
MOLECULE: CC(=O)NC(CCCCNC(=O)OCc1ccccc1)C(=O)NCc1ccccc1 (centres undefined)
GI50: > 100 µM (inactive)
--
MOLECULE: COc1cc(/N=N/N(C)C)c(C(C)c2c3cc(OC)c(OC)cc3cc[n+]2C)cc1OC (centres undefined)
GI50: > 100 µM (inactive)
--
MOLECULE: O=C(CC(Cl)(Cl)C(Cl)(Cl)Cl)c1ccccc1
GI50: 2.3 µM (inactive)
--
MOLECULE: COc1ccc(C(Nc2ccccn2)c2cc(C(C)(C)C)cc(C(C)(C)C)c2O)cc1 (centres undefined)
GI50: 39.4 µM (inactive)
--
MOLECULE: COC(=O)C1=C(SC)SC2(C(=O)OC)C3C=C(C)C4C(N13)C42C(=O)OC (centres undefined)
GI50: > 100 µM (inactive)
--
MOLECULE: CCOc1ccccc1NC(=O)C(=O)CC(=O)c1sc(Nc2nnc(-c3ccc(Cl)c(Cl)c3)o2)nc1C
GI50: > 100 µM (inactive)
--
MOLECULE: N#CC1=C(N)Nc2nc3ccccc3n2C1c1ccccc1 (centres undefined)
GI50: 46.8 µM (inactive)
--
MOLECULE: CN(C)C(=O)NC(=S)N(C)C
GI50: > 100 µM (inactive)
--
MOLECULE: CC(=O)Nc1ccc(C2=N/C(=C\c3ccc(Cl)c(Cl)c3)C(=O)O2)cc1
GI50: > 100 µM (inactive)

---

tested on: OVCAR-4; test: NCI tumour cell line growth inhibition, 48 h
Calls of active or inactive are those of the source. No stated cut-off is given here; in the data, active = GI50 up to about 1.1 µM and inactive = higher.
Outcome codes: active, inactive

COMPOUND: COC(=O)[C@@H]1CCCN1CCN1CCC[C@H]1C(=O)OC
ASSIGNED_CLASS: inactive
--
COMPOUND: CCCCCCCCCCCCOP(=O)(O)OP(=O)(O)OCC1OC(n2ccc(N)nc2=O)CC1O (centres undefined)
ASSIGNED_CLASS: inactive
--
COMPOUND: Cn1cc(-c2cnc(-c3cn(C)c4ccccc34)cn2)c2ccccc21
ASSIGNED_CLASS: inactive
--
COMPOUND: CC(=O)O[C@@H](c1nccn1Cc1ccccc1)[C@H]1OC(C)(C)O[C@@H]1[C@H]1COC(C)(C)O1
ASSIGNED_CLASS: inactive
--
COMPOUND: O=C1CCCCC1CN1CCCC1 (centres undefined)
ASSIGNED_CLASS: inactive
--
COMPOUND: Cc1cc2nc3c(C)c4ccccc4c(C)n3c2cc1C
ASSIGNED_CLASS: inactive
--
COMPOUND: O=C(Nc1ccc([N+](=O)[O-])cc1[N+](=O)[O-])C(=O)C(C(=O)c1ccc2ccccc2c1)C1OC(=O)c2ccccc21 (centres undefined)
ASSIGNED_CLASS: inactive
--
COMPOUND: Nc1c(C(=O)Nc2ccc(C3=NCCN3)cc2)cccc1C(=O)Nc1ccc(C2=NCCN2)cc1
ASSIGNED_CLASS: inactive
--
COMPOUND: CN(N)/N=N/c1[nH]cnc1[N+](=O)[O-]
ASSIGNED_CLASS: inactive
--
COMPOUND: C#CCn1c2c(c3ccccc3c1=O)C(=O)c1ccccc1-2
ASSIGNED_CLASS: inactive
--
COMPOUND: CCOC(=O)/C(=C/Nc1c(C)n(C)n(-c2ccccc2)c1=O)C(C)=O
ASSIGNED_CLASS: inactive
--
COMPOUND: CCOP(=O)(OCC)C(Nc1ccc(F)cc1)c1ccccc1 (centres undefined)
ASSIGNED_CLASS: inactive
--
COMPOUND: CC(=O)Nc1ccc2c(c1)/C(=N/c1ccc(C(=O)O)cc1)c1ccccc1-2
ASSIGNED_CLASS: inactive
--
COMPOUND: CCOC(=O)/C(C(=S)NCc1ccccc1)=C(/N)N1CCCC1
ASSIGNED_CLASS: inactive
--
COMPOUND: CN1CCN(Cn2nc(COc3ccccc3Cl)n(/N=C/c3ccc(-c4ccc(Cl)cc4Cl)o3)c2=S)CC1
ASSIGNED_CLASS: inactive
--
COMPOUND: CC(=O)O[C@H]1[C@@H](OC(C)=O)C(C)(C)/C=C/[C@H](C)C(=O)[C@@]2(OC(C)=O)C[C@@](C)(OC(C)=O)[C@H](OC(C)=O)[C@@H]2[C@H]2OC(=O)CC[C@@]2(OC(=O)c2ccccc2)[C@@H]1OCC(C)C
ASSIGNED_CLASS: inactive
--
COMPOUND: CC(C)c1cccc(C(C)C)c1N1C(=O)C(=O)C(c2nc3ccccc3o2)C(=O)C1=O
ASSIGNED_CLASS: inactive
--
COMPOUND: CC(C)(CCCCC(C)(C)NC1=NCCO1)NC1=NCCO1
ASSIGNED_CLASS: inactive
--
COMPOUND: COc1cc(C2c3cc4c(cc3OC(Nc3ccc(C(=O)O)cc3)C2C)OCO4)cc(OC)c1OC (centres undefined)
ASSIGNED_CLASS: active
--
COMPOUND: C=CCN1C(=O)/C(=C\c2cc(C(C)(C)C)c(O)c(C(C)(C)C)c2)NC1=S
ASSIGNED_CLASS: inactive
--
COMPOUND: Cn1c(=O)nc2n(-c3ccc(Cl)cc3Cl)c3ccccc3nc-2c1=O
ASSIGNED_CLASS: inactive
--
COMPOUND: C=C(C)[C@@H]1CCC2=C[C@H](OC2=O)[C@@]2(C)C[C@@H]2C2=CC(C)=C(O2)[C@H]1O
ASSIGNED_CLASS: inactive
--
COMPOUND: CCCCCCNC(=O)CCC(NC(=O)c1ccc(N(C)Cc2cnc3nc(N)nc(N)c3n2)cc1)C(=O)NCCCCCC (centres undefined)
ASSIGNED_CLASS: inactive
--
COMPOUND: CC(O)c1ccc(C(O)/C(=N\NC(=O)c2ccncc2)c2nc3ccc([N+](=O)[O-])cc3nc2O)cc1 (centres undefined)
ASSIGNED_CLASS: inactive
--
COMPOUND: Fc1cccc(F)c1C1SCc2nc3ccc(Cl)cc3n21 (centres undefined)
ASSIGNED_CLASS: inactive
--
COMPOUND: CC1=NN(c2nc(N)nc(-c3sccc3N)n2)C(C)(C)C1
ASSIGNED_CLASS: inactive
--
COMPOUND: O=C(O)C(F)(OC(F)(F)C(F)(F)C(F)(F)F)C(F)(F)F (centres undefined)
ASSIGNED_CLASS: inactive
--
COMPOUND: CN(C)/N=C/c1cn(C)c(=O)n(C)c1=O
ASSIGNED_CLASS: inactive
--
COMPOUND: COc1ccc(C(=O)C(c2ccc(OC)cc2)C2(O)C(=O)Nc3c2ccc(Cl)c3C)cc1 (centres undefined)
ASSIGNED_CLASS: inactive
